Assay: caspase-8 TRAIL sensitization, hit retest, confirmation, cell-based, NB7+caspase-8, with/without TRAIL, luminescence panel (AID 651596)
Details: NB7 neuroblastoma + caspase-8, without TRAIL, luminescence viability, without TRAIL, mean of runs, at 10 µM
Each entry below lists one item and its recorded activity value.
Give the number; % is assumed, so skip it.

Below, each entry is followed by its recorded activity result.
{"compound": "c1c2c(cc3sc(N4CCCCC4)nc13)OCO2", "observedMeasurement": 44.2}
{"compound": "O=C(Nc1ccc2c(c1)OCO2)c1ccc(Cl)cc1Cl", "observedMeasurement": 67.6}
{"compound": "O=[N+]([O-])c1ccc(N2CCN(Cc3ccccc3)CC2)c2c1no[n+]2[O-]", "observedMeasurement": 99.1}
{"compound": "COc1ccc(C(C(=O)NC2CCCCC2)N(C(=O)CCl)c2ccc(Cl)cc2)cc1 (stereo not given)", "observedMeasurement": 98.9}
{"compound": "C#CCSc1nnc(-c2ccc(C)cc2)o1", "observedMeasurement": 93.2}
{"compound": "Cc1ccc2nc(NC(=O)c3ccco3)sc2c1", "observedMeasurement": 76.2}
{"compound": "Cc1csc(NC(=O)c2ccc(N3CCCC3=O)cc2)n1", "observedMeasurement": 73.5}
{"compound": "COc1ccc(C(=O)Nc2ccc3[nH]ccc3c2)cc1", "observedMeasurement": 95.3}

Query block: Dear colleague, I am looking for the recorded activity of the following compound: CS(=O)(=O)Nc1cccc(NC(=O)C2Cc3c(-c4ccco4)ccnc3O2)c1 (stereo not given)
Result block: 27.8

Query block: Form field: reported activity of CCCn1c(C)cc(C(=O)COC(=O)c2cc(=O)[nH]c3ccccc23)c1C
Result block: 59.1

Query block: Recorded activity for O=c1c2ccccc2oc2ccc(C#CC3(O)CCCCC3)cc12 , please?
Result block: 84.8
